- system.tested: Calcium and integrin-binding protein 1 (Homo sapiens)
- procedure.summary: Primary qHTS for Identification of Calcium Integrin Binding Protein 1 (CIB1) Competitor (AID 1508620);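 note: GST tagged CIB1 binding a fluorescein labelled alphaIIb integrin peptide tracer; top concentration of the series differs between compounds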
- condition.context: CIB1-GST / FITC-alphaIIb peptide fluorescence polarization; series mostly up to 114 µM
Results filed as inconclusive are left out. Activity calls are given as the source filed them. Calls come from the whole dose curve; as a rule, active = well fitted inhibition curve with a large enough effect; inconclusive = small, poorly fitted or top-dose-only effect; inactive = flat fitted curve, though single readings scatter.
recorded.metric: outcome

Completed entries (count: 5):
[[record]]
chem_smiles = "COc1cccc(CNc2ccc(S(=O)(=O)Nc3cnc4ccccc4c3)cc2)c1O"
assay_result = "inactive"

[[record]]
chem_smiles = "O=C(CN1C(=O)N/C(=C\\c2cccn2-c2cccc(C(=O)O)c2)C1=O)Nc1ccccc1F"
assay_result = "inactive"

[[record]]
chem_smiles = "Cc1ccccc1C(=O)N1CCc2cc(-c3nc(NC(=O)c4ccc5c(c4)OCO5)sc3C)ccc21"
assay_result = "inactive"

[[record]]
chem_smiles = "Cn1nnnc1Sc1ncnc2scc(-c3cccc(N)c3)c12"
assay_result = "inactive"

[[record]]
chem_smiles = "CNc1nc(C#N)c(-c2cccc3ccccc23)o1"
assay_result = "inactive"


The measured outcome associated with O=C1CN(S(=O)(=O)c2c(F)cccc2F)CCN1S(=O)(=O)c1ccc2c(c1)OCCO2 reads inactive

###

- system.tested: Cytochrome P450 3A4 (Homo sapiens)
- procedure.summary: qHTS Assay for Inhibitors and Substrates of Cytochrome P450 3A4 (AID 884); note: nearly all actives have a fitted effect of over 50% in size
- condition.context: recombinant CYP3A4, Luciferin-PPXE luminescence; series mostly up to 57.1 µM
Records with an inconclusive call do not appear. Calls of active or inactive are those of the source. Calls come from the whole dose curve; as a rule, active = well fitted inhibition curve with a large enough effect; inconclusive = small, poorly fitted or top-dose-only effect; inactive = no such curve, though single readings can be large or run the other way.
Answer with one of the outcomes given here: Y for active, N for inactive

Per the records of this test, what outcome belongs to O=C(Nc1cccc(F)c1)N1CCCC2(CCN(C(=O)c3ccncc3)CC2)C1 ? Y

Per the records of this test, what outcome belongs to CCCC(=O)NCCc1c2n(c3ccc(OC)cc13)Cc1ccccc1-2 ? Y

Per the records of this test, what outcome belongs to c1cncc(CNc2ncnc3ccc(-c4ccoc4)cc23)c1 ? Y

Per the records of this test, what outcome belongs to Cc1cccc(CNc2ncncc2-c2ccc3c(c2)OCO3)c1 ? Y

Per the records of this test, what outcome belongs to CN(Cc1ccco1)c1ncncc1-c1ccccc1Cl ? Y

Per the records of this test, what outcome belongs to Cc1cnc(CNc2ncncc2-c2cccc(C#N)c2)cn1 ? Y

Per the records of this test, what outcome belongs to CC(=O)NCCNc1ncncc1-c1ccccc1C ? Y

Per the records of this test, what outcome belongs to COc1cccc(-c2cncnc2-n2ccnc2)c1 ? Y

Per the records of this test, what outcome belongs to CCN(CC)CCCC(C)n1c(-c2ccccc2)nc2c(NCc3ccccc3)nc(C)nc21 (stereo not drawn) ? Y

Per the records of this test, what outcome belongs to CNc1ncnc2ccc(-c3ccccc3CN(C)C)cc12 ? Y

Per the records of this test, what outcome belongs to COc1ccccc1-c1cncnc1NCc1cccnc1 ? Y

Per the records of this test, what outcome belongs to COc1cccc(-c2cncnc2NCc2ccccc2)c1 ? Y

Per the records of this test, what outcome belongs to O=S(=O)(c1ccccc1)N1CCC2(CCN(C(c3ccccc3)c3ccccc3)CC2)CC1 ? N

###

- procedure.summary: qHTS to identify inhibitors of the type 1 interferon - major histocompatibility complex class I in skeletal muscle: primary screen against the NCATS Mechanism Interrogation Plate v5.0 (MIPE) Libary (AID 1347411); note: nearly all actives have a fitted effect of over 65% in size
- condition.context: iHSKM cells + IFN-b, HiBiT-tagged MHC-I luminescence, 24 h; series mostly up to 45.8 µM
Records with an inconclusive call do not appear. The source made the active and inactive calls. The call rests on the fitted dose curve; in most records, active means well fitted inhibition curve with a large enough effect; inconclusive means small, poorly fitted or top-dose-only effect; inactive means no such curve, though single readings can be large or run the other way.
Answer with one of the outcomes given here: 1 = active, 0 = inactive

Per the records of this test, what outcome belongs to COc1cc2nccc(Oc3ccc(NC(=O)c4cn(C(C)C)c(=O)n(-c5ccc(F)cc5)c4=O)cc3F)c2cc1OC ? 0

Per the records of this test, what outcome belongs to O=C1NC(=O)/C(=C\c2ccc(-c3ccc(F)cc3)o2)S1 ? 0

Per the records of this test, what outcome belongs to CN(CCOc1ccc(-c2ccc3c(c2)OCO3)cc1C(C)(C)C)CC(=O)O ? 0

Per the records of this test, what outcome belongs to Cc1ccc(NS(=O)(=O)c2cccc(C#N)c2)c2[nH]cc(C#N)c12 ? 0

Per the records of this test, what outcome belongs to CCn1c(=O)c2c(nc(/C=C/c3ccc(OC)c(OC)c3)n2C)n(CC)c1=O ? 0

Per the records of this test, what outcome belongs to COC1=C2C[C@H](C)C[C@H](OC)[C@H](O)[C@@H](C)/C=C(/C)[C@H](OC(N)=O)[C@@H](OC)/C=C\C=C(\C)C(=O)NC(=CC1=O)C2=O ? 1

Per the records of this test, what outcome belongs to NC(=O)/C(=C/n1cnc(-c2cc(C(F)(F)F)cc(C(F)(F)F)c2)n1)c1cncnc1 ? 1

Per the records of this test, what outcome belongs to CN(Cc1ccc(/C=C/C(=O)NO)cc1)CC12CC3CC(CC(C3)C1)C2 ? 1

Per the records of this test, what outcome belongs to C[C@H]1O[C@H](O[C@H]2[C@H](O)[C@@H](O)[C@@H](O[C@H]3[C@H](O)[C@@H](O)C(O)O[C@@H]3CO)O[C@@H]2CO)[C@H](O)[C@@H](O)[C@@H]1N[C@H]1C=C(CO)[C@@H](O)[C@H](O)[C@H]1O (stereo not given in full) ? 0

Per the records of this test, what outcome belongs to C=CC(=O)N1CC/C(=C\c2ccc(F)c([N+](=O)[O-])c2)C(=O)/C(=C/c2ccc(F)c([N+](=O)[O-])c2)C1 ? 1

Per the records of this test, what outcome belongs to CC(C)(C)C(=O)N1N=CC[C@H]1c1ccccc1 ? 0

Per the records of this test, what outcome belongs to C[C@H](Nc1nc(N[C@H](C)C(F)(F)F)nc(-c2cccc(Cl)n2)n1)C(F)(F)F ? 0

Per the records of this test, what outcome belongs to CN(CCOc1ccc(C[C@H](Nc2ccccc2C(=O)c2ccccc2)C(=O)O)cc1)c1ccccn1 ? 0

Per the records of this test, what outcome belongs to N[C@@H]1CN(c2c(F)cc3c(=O)c(C(=O)O)cn([C@@H]4C[C@@H]4F)c3c2Cl)CC12CC2 ? 0

Per the records of this test, what outcome belongs to CC[C@H]1OC(=O)[C@H](C)C(=O)[C@H](C)[C@@H](O[C@H]2O[C@H](C)C[C@H](N(C)C)[C@H]2O)[C@](C)(OC)C[C@@H](C)C(=O)[C@H](C)[C@H]2N(CCCCn3cnc(-c4cccnc4)c3)C(=O)O[C@]12C ? 0

Per the records of this test, what outcome belongs to O=C1CC[C@H](N2Cc3c(OCc4ccc(CN5CCOCC5)cc4)cccc3C2=O)C(=O)N1 ? 0

Per the records of this test, what outcome belongs to O=C(Cc1ccccc1)Nc1nnc(CCSCCc2nnc(NC(=O)Cc3ccccc3)s2)s1 ? 0

Per the records of this test, what outcome belongs to Cn1cc(/C=C/C(=O)c2cccc(F)c2)cc1/C=C/C(=O)NO ? 0

Per the records of this test, what outcome belongs to CC(C)n1cc(-c2ccc3c(c2)N(C)CC3)c2c(NS(=O)(=O)c3ccn(C)n3)ccnc21 ? 0

Per the records of this test, what outcome belongs to COC1CCC(N2C(=O)CNc3ncc(-c4ccc(C(C)(C)O)nc4)nc32)CC1 (stereo not given) ? 1

###

- System: PAD
- procedure.summary: qHTS profiling for inhibitors of Plasmodium falciparum proliferation (AID 504749); note: nearly all actives have a fitted effect of over 60% in size
- condition.context: P. falciparum in erythrocytes, SYBR Green DNA, 72 h; series mostly up to 28.7 µM
Records with an inconclusive call do not appear. The source made the active and inactive calls. Calls come from the whole dose curve; as a rule, active = well fitted inhibition curve with a large enough effect; inconclusive = small, poorly fitted or top-dose-only effect; inactive = flat fitted curve, though single readings scatter.
Answer with one of the outcomes given here: active, inactive

Per the records of this test, what outcome belongs to Oc1ccc(/C=C\c2cc(O)cc(O)c2)cc1 ? inactive

Per the records of this test, what outcome belongs to CN=C(N)NCCCC(N)C(=O)O (stereo not given) ? inactive

Per the records of this test, what outcome belongs to COc1ccc(CCNC[C@@H](O)c2ccc(O)cc2)cc1OC ? inactive

Per the records of this test, what outcome belongs to CN1C[C@H](C(=O)N[C@]2(C)O[C@@]3(O)C4CCCN4C(=O)[C@H](Cc4ccccc4)N3C2=O)C[C@@H]2c3cccc4[nH]cc(c34)C[C@H]21 (stereo not given in full) ? active

Per the records of this test, what outcome belongs to CC(C)C[C@H]1C(=O)N2CCCC2[C@]2(O)O[C@](NC(=O)[C@@H]3C=C4c5cccc6[nH]c(Br)c(c56)C[C@H]4N(C)C3)(C(C)C)C(=O)N12 (stereo not given in full) ? active

###

- procedure.summary: qHTS for inhibitors of ER calcium dysfunction: SERCaMP assay screened against the NCATS CANVASS Library (AID 1347393); note: nearly all actives have a fitted effect of over 40% in size
- condition.context: SH-SY5Y GLuc-SERCaMP (Gaussia luciferase released on ER calcium loss) secretion, thapsigargin, luminescence; series mostly up to 76.6 µM
Results filed as inconclusive are left out. Calls of active or inactive are those of the source. Calls follow the shape of the dose curve; as a rule, active = well fitted inhibition curve with a large enough effect; inconclusive = small, poorly fitted or top-dose-only effect; inactive = no such curve, though single readings can be large or run the other way.
Answer with one of the outcomes given here: yes (1) = active, no (0) = inactive

Per the records of this test, what outcome belongs to CN1C(=O)C(=O)N2C(=C[C@]3(c4c[nH]c5ccccc45)c4ccccc4N[C@H]23)C1=O ? no (0)

Per the records of this test, what outcome belongs to CC1=C2CC[C@]3(C)[C@H](CC=C4[C@@H]5CC(C)(C)CC[C@@H]5C(=O)[C@H](O)[C@]43C)[C@@]2(C)C=C(O)C1=O ? yes (1)

Per the records of this test, what outcome belongs to COc1cc([C@@H]2c3cc4c(cc3C[C@@]3(O[C@@H]5O[C@H](CO)[C@@H](O)[C@H](O)[C@H]5O)COC(=O)[C@H]23)OCO4)cc(OC)c1OC ? no (0)

Per the records of this test, what outcome belongs to C/C1=C/[C@@H](C)[C@H](O)[C@@H](O)/C=C/CC/C=C/C(=O)O[C@@H]1[C@H](C)C(=O)CCCC1CC(=O)NC(=O)C1 ? no (0)

Per the records of this test, what outcome belongs to C/C=C(/CO)C(=O)O[C@@H]1[C@H](O)[C@@H](C(=O)OC)O[C@@H]2C[C@H]3OC(n4cnc5c(N)ncnc54)[C@H](OC)[C@H]3O[C@@]12O (stereo partly specified) ? no (0)

Per the records of this test, what outcome belongs to C=CC(CCCCC)C1C(=O)NC(=O)C1C(=O)C1C(/C=C/C)C=CC2CC(C(=O)O)CC(C)C21 (stereo unspecified) ? no (0)
